Ref: ChEMBL document CHEMBL1909046

Listing of entries alongside the reported pIC50.
- measured_on: Matrix metalloproteinase-9 (Homo sapiens)
- Sequence (P14780 whole entry): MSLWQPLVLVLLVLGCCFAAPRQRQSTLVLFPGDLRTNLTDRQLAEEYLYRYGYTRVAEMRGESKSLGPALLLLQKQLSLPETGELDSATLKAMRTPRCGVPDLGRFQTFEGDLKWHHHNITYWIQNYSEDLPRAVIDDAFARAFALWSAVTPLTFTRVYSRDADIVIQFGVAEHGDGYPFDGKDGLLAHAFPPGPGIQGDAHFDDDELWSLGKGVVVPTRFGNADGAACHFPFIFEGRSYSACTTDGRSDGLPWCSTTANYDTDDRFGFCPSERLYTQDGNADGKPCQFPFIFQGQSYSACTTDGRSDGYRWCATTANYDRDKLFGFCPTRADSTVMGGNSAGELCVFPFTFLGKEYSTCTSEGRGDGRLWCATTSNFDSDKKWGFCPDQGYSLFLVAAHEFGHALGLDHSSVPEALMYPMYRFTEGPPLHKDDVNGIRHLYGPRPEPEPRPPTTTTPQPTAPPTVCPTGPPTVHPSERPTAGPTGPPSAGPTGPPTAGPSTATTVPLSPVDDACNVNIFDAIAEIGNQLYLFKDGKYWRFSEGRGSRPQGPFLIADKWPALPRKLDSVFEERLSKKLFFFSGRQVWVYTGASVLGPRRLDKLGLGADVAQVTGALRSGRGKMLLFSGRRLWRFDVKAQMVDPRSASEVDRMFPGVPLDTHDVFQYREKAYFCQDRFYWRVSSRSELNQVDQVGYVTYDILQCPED
- assay_procedure: biochemical;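 note: inhibition of isolated MMP-9 enzyme activity toward a synthetic peptide substrate, from the DrugMatrix protease screening panel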
- Type: cell-based
- test_settings: read-out: IC50
In plain terms, pIC50 is the concentration in mol/L turned into minus its base-10 logarithm.

* C=CCC1(C(C)CCC)C(=O)NC(=O)NC1=O (configuration not stated) [SECOBARBITAL] | 5.58

Now take the following compound into account.
// pIC50 lookup, compound = CCCC1O[C@@H]2C[C@H]3[C@@H]4CCC5=CC(=O)C=C[C@]5(C)[C@H]4[C@@H](O)C[C@]3(C)[C@]2(C(=O)CO)O1 (some centres not stated) [BUDESONIDE] , result: 5.70
